# tested_system: SpAbp1-D1
# procedure_details: SPOT peptide array binding signal intensity (averaged, normalized) (arbitrary units (background-subtracted, floor 0; scale differs between SH3 domains)); higher = stronger binding of the SH3 domain to the peptide
readout: SPOT peptide array binding signal intensity
One number for each entry.

Examples with answers:
The binder "KKEKKPPKIPKKVYT" showed SPOT peptide array binding signal intensity equal to 396

Given item "ITHRLRISIPGITGR" , the value recorded as its SPOT peptide array binding signal intensity is 91.5

API: the following record is the query input.
binder "VRVKKRPLIRPLNSS" , SPOT peptide array binding signal intensity observed: 388

Data origin, for the record: the supplement of paper PMC4466140
